- Test system: Nomo-1
- assay_text: IncuCyte live cell imaging of cell viability, Red-labeled cell line
- Assay type: cell-based
- condition_parameters: Homo sapiens; Red-labeled NOMO-1; 72 hr; read-out: Inhibition of Cell Viability EC50
readout_name: EC50 (nM)
Just the number in nM, nothing appended.

Give the measured EC50 of O=C1CCC(N2Cc3cc(CNC(=O)C(F)(F)c4ccc(Cl)cc4)ccc3C2=O)C(=O)N1 (stereo not shown) . 17

###

- Test system: F36-P
- assay_text: IncuCyte Kinetic Caspase-3/7 Apoptosis Assay
- Assay type: cell-based
- condition_parameters: Homo sapiens, 48 hr, read-out: Compound 1-induced Apoptosis EC50
readout_name: EC50
Report the figure along with its unit, number first.

Give the measured EC50 of O=C1CCC(N2Cc3cc(CNC(=O)C(F)(F)c4ccc(Cl)cc4)ccc3C2=O)C(=O)N1 (stereo not shown) [Compound 1] . 335 nM
